- assay info: in vivo
- condition info: male, Sprague-Dawley, rat, plasma, oral, 150 mg/kg
observation type: bioavailability (%)
One number for each entry, in %.

Enquiry: Quick one: bioavailability for CSCC[C@@H](N)C(=O)O [D-Methionine, D-methionine] ?
Return: 61.3

* * *

- assay info: in vivo
- condition info: male, Sprague-Dawley, rat, plasma, iv, 150 mg/kg, T1/2 (terminal half-life) of D-Methionine, IV 150 mg/kg, solution
observation type: half-life (min)
Give bare numbers, in min.

Enquiry: Quick one: half-life for "CSCC[C@@H](N)C(=O)O" ?
Return: 54

* * *

- assay info: in vivo
- condition info: male, Sprague-Dawley, rat, plasma, po, 150 mg/kg, Cmax of D-Methionine, PO 150 mg/kg, solution
observation type: Cmax (µg/mL)
Answers are plain numbers, in µg/mL.

Enquiry: Quick one: Cmax for "CSCC[C@@H](N)C(=O)O" ?
Return: 77.1

* * *

- assay info: in vivo
- condition info: male, Sprague-Dawley, rat, plasma, po, 150 mg/kg, Mean Plasma Concentrations of D-Methionine, PO 150 mg/kg, suspension; 0.25 h
observation type: concentration at 0.25 h (ng/mL)
Answers are plain numbers, in ng/mL.

Enquiry: Quick one: concentration at 0.25 h for CSCC[C@@H](N)C(=O)O [D-Methionine, D-methionine] ?
Return: 69.5

* * *

- assay info: in vivo
- condition info: male, Sprague-Dawley, rat, plasma, po, 150 mg/kg, Mean Plasma Concentrations of D-Methionine, PO 150 mg/kg, solution; 0.00 h (predose)
observation type: concentration at 0 h
Write your answer as a measured quantity: the number, then the unit.

Enquiry: Quick one: concentration at 0 h for "CSCC[C@@H](N)C(=O)O" ?
Return: 0 ng/mL

* * *

- assay info: in vivo
- condition info: male, Sprague-Dawley, rat, plasma, po, 150 mg/kg, Mean Plasma Concentrations of D-Methionine, PO 150 mg/kg, suspension; 1.00 h
observation type: concentration at 1 h (ng/mL)
One number for each entry, in ng/mL.

Enquiry: Quick one: concentration at 1 h for CSCC[C@@H](N)C(=O)O [D-Methionine, D-methionine] ?
Return: 44.1

* * *

- assay info: in vivo
- condition info: male, Sprague-Dawley, rat, plasma, po, 300 mg/kg, Mean Plasma Concentrations of D-Methionine, PO 300 mg/kg, suspension; 4.00 h
observation type: concentration at 4 h (ng/mL)
Give bare numbers, in ng/mL.

Enquiry: Quick one: concentration at 4 h for CSCC[C@@H](N)C(=O)O [D-Methionine, D-methionine] ?
Return: 22.7

* * *

- assay info: in vivo
- condition info: male, Sprague-Dawley, rat, plasma, iv, 150 mg/kg, Mean Plasma Concentrations of D-Methionine, IV 150 mg/kg, solution; 0.25 h
observation type: concentration at 0.25 h (ng/mL)
One number for each entry, in ng/mL.

Enquiry: Quick one: concentration at 0.25 h for "CSCC[C@@H](N)C(=O)O" ?
Return: 220

* * *

- assay info: in vivo
- condition info: male, Sprague-Dawley, rat, plasma, po, 150 mg/kg, Mean Plasma Concentrations of D-Methionine, PO 150 mg/kg, suspension; 6.00 h
- Description: Twenty-six male Sprague-Dawley rats weighing approximately 200 to 300 g were used for the study. The jugular vein of six animals were cannulated and the rest of the animals were used without any further preparation. Dosing was conducted on two occasions. […] The drug was prepared in a suspension formulation in accordance with the present invention. […] L-Methinione can also be detected under the same HPLC conditions. […]
observation type: concentration at 6 h (ng/mL)
Answers are plain numbers, in ng/mL.

Enquiry: Quick one: concentration at 6 h for CSCC[C@@H](N)C(=O)O [D-Methionine, D-methionine] ?
Return: 1.7

* * *

- assay info: in vivo
- condition info: male, Sprague-Dawley, rat, plasma, po, 150 mg/kg, Mean Plasma Concentrations of D-Methionine, PO 150 mg/kg, solution; 1.00 h
observation type: concentration at 1 h
Write your answer as a measured quantity: the number, then the unit.

Enquiry: Quick one: concentration at 1 h for CSCC[C@@H](N)C(=O)O [D-Methionine, D-methionine] ?
Return: 54.1 ng/mL

* * *

- assay info: in vivo
- condition info: male, Sprague-Dawley, rat, plasma, iv, 150 mg/kg, Mean Plasma Concentrations of D-Methionine, IV 150 mg/kg, solution; 6.00 h
observation type: concentration at 6 h (ng/mL)
Answers are plain numbers, in ng/mL.

Enquiry: Quick one: concentration at 6 h for CSCC[C@@H](N)C(=O)O [D-Methionine, D-methionine] ?
Return: 1.45

* * *

- assay info: in vivo
- condition info: male, Sprague-Dawley, rat, plasma, iv, 150 mg/kg, AUC(0-inf) of D-Methionine, IV 150 mg/kg, solution
observation type: AUC(0-inf) (µg·h/mL)
Numbers only, in µg·h/mL.

Enquiry: Quick one: AUC(0-inf) for "CSCC[C@@H](N)C(=O)O" ?
Return: 269

* * *

- assay info: in vivo
- condition info: male, Sprague-Dawley, rat, plasma, po, 150 mg/kg
observation type: Tmax (min)
One number for each entry, in min.

Enquiry: Quick one: Tmax for CSCC[C@@H](N)C(=O)O [D-Methionine, D-methionine] ?
Return: 30

* * *

- assay info: in vivo
- condition info: male, Sprague-Dawley, rat, plasma, po, 300 mg/kg, Mean Plasma Concentrations of D-Methionine, PO 300 mg/kg, suspension; 0.00 h (predose)
observation type: concentration at 0 h (µg/mL)
One number for each entry, in µg/mL.

Enquiry: Quick one: concentration at 0 h for "CSCC[C@@H](N)C(=O)O" ?
Return: 0

* * *

- assay info: in vivo
- condition info: male, Sprague-Dawley, rat, plasma, po, 150 mg/kg, Mean Plasma Concentrations of D-Methionine, PO 150 mg/kg, solution; 4.00 h
observation type: concentration at 4 h
Write your answer as a measured quantity: the number, then the unit.

Enquiry: Quick one: concentration at 4 h for "CSCC[C@@H](N)C(=O)O" ?
Return: 7.67 ng/mL

* * *

- assay info: in vivo
- condition info: male, Sprague-Dawley, rat, plasma, po, 300 mg/kg, Mean Plasma Concentrations of D-Methionine, PO 300 mg/kg, suspension; 6.00 h
observation type: concentration at 6 h (ng/mL)
Numbers only, in ng/mL.

Enquiry: Quick one: concentration at 6 h for CSCC[C@@H](N)C(=O)O [D-Methionine, D-methionine] ?
Return: 5.5

Taken from patent US20060058390A1.
